Measured protein stability index of individual entries
B1: C2CD2L (parent)
chain: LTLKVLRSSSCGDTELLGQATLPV

- Variants of: B1
- Measurement notes: protein stability index of a GFP-peptide fusion (GPS, HEK-293T) (PSI 1-6); higher = more stable;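 also: lentivirally expressed fusions sorted by FACS into six bins by GFP to DsRed ratio, PSI derived from sequencing read proportions per bin multiplied by bin number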
- Conditions: c terminus: a fixed tail appended
Quick one: just the number, no unit, thanks!

INSERT INTO measurements (mutation_name, reported_result) VALUES
  ('V5G', 2.52);

Here is another variant to look at.
Would you kindly share the measured protein stability index for V5I ?
2.08
